All figures here come from patent US11608341B2.

Biological target: C5AR1 (Homo sapiens, UniProt P21730)
Sequence (P21730 whole entry): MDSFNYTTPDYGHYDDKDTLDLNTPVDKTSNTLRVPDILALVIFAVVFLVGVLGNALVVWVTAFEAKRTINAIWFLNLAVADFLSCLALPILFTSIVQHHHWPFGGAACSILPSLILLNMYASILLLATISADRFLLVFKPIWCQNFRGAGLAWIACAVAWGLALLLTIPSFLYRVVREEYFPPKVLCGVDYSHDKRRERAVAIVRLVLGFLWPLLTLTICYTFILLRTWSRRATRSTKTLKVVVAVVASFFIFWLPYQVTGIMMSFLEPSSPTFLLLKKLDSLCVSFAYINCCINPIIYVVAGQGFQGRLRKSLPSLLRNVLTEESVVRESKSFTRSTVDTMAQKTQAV
Experiment: In vitro assay: antagonism of C5a-induced beta-arrestin recruitment (PathHunter) in CHO-K1 C5AR1 beta-arrestin cell line
Settings: antagonistic activity, 1-10 nM C5a agonist, geometric mean where several measurements, read-out: C5aR IC50
Returns: string. Value is label 1 if measured IC50 is below 30 nM, and label 0 if it is greater than or equal to it.

CNC(=O)N1CC(n2cc3c(n2)N(Cc2ccccc2C(F)(F)F)C(=O)N(C2CCN(c4c(C)cccc4F)CC2)C3)C1: label 0
CC1c2cn(C)nc2N(Cc2ccccc2C(F)(F)F)C(=O)N1C1CCN(c2c(F)cccc2C2CC2)CC1 (single isomer, unassigned): label 0
Cn1cc2c(n1)N(Cc1ccccc1C(F)(F)F)C(=O)N(C1CCN(c3c(F)cccc3F)CC1)C2: label 1
CC1c2cn(C)nc2N(Cc2ccccc2C(F)(F)F)C(=O)N1C1CCN(c2c(F)cccc2Cl)CC1 (single isomer, unassigned) [Example 320]: label 0
Cc1cccc(F)c1N1CCC(N2Cc3cn(C[C@H]4CC(F)(F)CN4)nc3N(Cc3ccccc3C(F)(F)F)C2=O)CC1: label 1
Cn1cc2c(n1)N(Cc1ccccc1C(F)(F)F)C(=O)N(C1CCN(c3c(F)cccc3C(F)F)CC1)C2: label 1

Now turn to the next molecule.
Regarding Cc1cccc(F)c1N1CCC(N2Cc3cn(C4CC4)nc3N(Cc3c(Br)cccc3C(F)(F)F)C2=O)CC1 , kindly confirm whether its IC50 is beneath 30 nM.
label 0

----------
Molecular target: C5AR1 (Homo sapiens, UniProt P21730)
Assay: In vitro assay: antagonism of C5a-induced beta-arrestin recruitment (PathHunter) in CHO-K1 C5AR1 beta-arrestin cell line
Details: antagonistic activity, 1-10 nM C5a agonist, geometric mean where several measurements, read-out: C5aR IC50
ENDPOINT: pIC50
Entry type: numeric. Quantity: pIC50, the -log10 of concentration in molar units.

Worked examples follow.
CC1c2cn(C)nc2N(Cc2ccccc2C2CC2)C(=O)N1C1CCN(c2c(F)cccc2Br)CC1 (single isomer, unassigned) [Example 384]: 7.92
Cc1cccc(F)c1N1CCC(N2Cc3cn(C(C)C)nc3N(Cc3ccccc3C(F)(F)F)C2=O)CC1 [Example 161]: 8.15
Cc1cccc(F)c1N1CCC(N2Cc3cn(C(C)(C)CO)nc3N(Cc3ccccc3C(F)(F)F)C2=O)CC1 [Example 32]: 7.85
Cc1cccc(F)c1N1CCC(N2Cc3cn(C)nc3N(Cc3ccccc3Cl)C2=O)CC1 [Example 233]: 8.00
Cc1cccc(F)c1N1CCC(N2C(=O)N(Cc3ccccc3C(F)(F)F)c3nn(C)cc3C2C)CC1 (single isomer, unassigned) [Example 220]: 8.10

Given the entry COc1cccnc1N1CCC(N2Cc3cn(C)nc3N(Cc3ccccc3C(F)(F)F)C2=O)CC1 [Example 70] , report its measured pIC50.
6.29

Could you tell me which pIC50 is on file for COc1nccc(C(F)F)c1N1CCC(N2C(=O)N(Cc3ccccc3C(F)(F)F)c3nn(C)cc3C2C)CC1 (single isomer, unassigned) [Example 346] ?
8.15

Recorded pIC50 of Cn1cc2c(n1)N(Cc1ccccc1C(F)(F)F)C(=O)N(C1CCN(c3c(F)cccc3C#N)CC1)C2 [Example 49] , please.
7.92

Can you look up the measured pIC50 of COc1nccc(C)c1N1CCC(N2Cc3nn(CC4(F)CC4)cc3N(Cc3ccccc3C(F)(F)F)C2=O)CC1 [Example 222] for me?
7.72

Please look up its pIC50: Cc1cccc(F)c1N1CCC(N2C(=O)N(Cc3ccccc3C3CC3)c3cn(CC(C)(F)F)nc3C2C)CC1 (single isomer, unassigned) [Example 277]
7.25

Recorded pIC50 for COc1nccc(C)c1N1CCC(N2C(=O)N(Cc3ccccc3C(F)(F)F)c3nn(C4CC4)cc3C2C)CC1 (single isomer, unassigned) [Example 345] , please?
7.46

# get_value(readout='pIC50', item= Cc1cccc(F)c1N1CCC(C)(N2Cc3cn(C)nc3N(Cc3ccccc3C(F)(F)F)C2=O)C1 (single isomer, unassigned) [Example 235] )
6.77

What measured pIC50 goes with CC(c1ccccc1C(F)(F)F)N1C(=O)N(C2CCN(c3c(F)cccc3C#N)CC2)Cc2cn(C)nc21 (single isomer, unassigned) [Example 288] ?
7.12

Given the molecule Cc1cccc(F)c1N1CCC(N2Cc3cn(CCO)nc3N(Cc3ccccc3C(F)(F)F)C2=O)CC1 [Example 20] , what is its reported pIC50?
7.92

Consider the molecule shown here: Cc1cccc(F)c1N1CCC(N2Cc3nn(C)nc3N(Cc3ncccc3C(F)(F)F)C2=O)CC1 [Example 128] What is its recorded pIC50?
7.82

Quick one: pIC50 of Cc1cccc(C)c1N1CCC(N2Cc3cn(C)nc3N(Cc3ccccc3C(F)(F)F)C2=O)C1 (single isomer, unassigned) [Example 57] ?
7.72

Look at this molecule and give its reported pIC50. Cc1cccc(F)c1N1CCC(N2Cc3nn(C)cc3N(Cc3ncccc3C(F)(F)F)C2=O)CC1 [Example 15]
7.35

Would you kindly share the measured pIC50 for Cc1cccc(F)c1N1CCC(N2Cc3cn(CC(C)(F)F)nc3N(Cc3c(Br)cccc3C(F)(F)F)C2=O)CC1 [Example 214] ?
7.06

Fill blank: measured pIC50 of the molecule COc1nccc(C)c1N1CCC(N2Cc3cn(C)nc3N(Cc3ccccc3C3CC3)C2=O)CC1 [Example 283] is ____.
8.10

So what's the measured pIC50 for this one? CC1c2cn(C3CCCCO3)nc2N(Cc2ccccc2C(F)(F)F)C(=O)N1C1CCN(c2c(F)cccc2Cl)CC1 (stereo not drawn) [Example 342]
7.62
